Assay: Antioxidant activity assessed as ABTS radical cation scavenging activity by measuring trolox equivalents by spectrophotometric analysis
Type: functional
Measured Activity values are reported for all entries that follow.

| Compound | Activity (mMequiv) |
| --- | --- |
| O=C(O)/C=C/c1ccc(O)c2c1C=Cc1cc(O)c(O)cc1O2 [TOURNEFOLIC ACID B] | 1.27 |
| CCOC(=O)/C=C/c1cc(O)c2oc(-c3cc(O)c(O)c(O)c3)cc2c1 | 0.94 |
| Oc1ccc(-c2cc3cc(Br)cc(O)c3o2)cc1O | 0.06 |

###

Experiment: Anti-inflammatory activity in Sprague-Dawley rat primary mixed glial cells assessed as inhibition of LPS-induced NO production at 50 uM pretreated for 2 hrs followed by LPS addition measured after 48 hrs by Griess assay (reference value: 100%)
Assay type: functional, Primary glial cell
Set-up: scale not given: the % may be the effect or the level left
Quantity measured: Activity (%)

| Molecule | Quantity measured | Assay value |
| --- | --- | --- |
| CCOC(=O)/C=C/c1c(/C=C/c2ccc(OC)cc2)cc(OC)c(OC)c1OC | Activity | 59.11 |
| COc1cc(/C=C/c2ccc3c(c2)OCO3)cc(OC)c1OC | Activity | 83.73 |
| COc1cc(Br)cc(/C=C/c2ccc3c(c2)OCO3)c1O | Activity | 48.79 |
| Oc1ccc(-c2cc3c(Br)ccc(O)c3o2)cc1O | Activity | 61.64 |
| CCOC(=O)/C=C/c1cc(O)c2oc(-c3cc(O)c(O)c(O)c3)cc2c1 | Activity | 40.35 |
| COc1ccc(/C=C/c2ccc3c(c2)OCO3)cc1O | Activity | 81.35 |
| Oc1ccc(-c2cc3cc(Br)cc(O)c3o2)cc1O | Activity | 86.85 |
| COc1ccc(/C=C/c2cc(Br)cc(OC)c2O)cc1OC | Activity | 88.34 |
| CCOC(=O)/C=C/c1ccc(/C=C/c2cc(OC)c(OC)c(OC)c2)cc1 | Activity | 91.44 |
| Oc1ccc(-c2cc3cc(Br)cc(O)c3o2)cc1 | Activity | 101.84 |
| COc1ccc(/C=C/c2cc(C=O)cc(OC)c2O)cc1OC | Activity | 27.99 |

###

System: Cortical neurone
Experiment: Neuroprotective activity against glutamate-induced cell death in Sprague-Dawley rat 10 days old neonatal primary cortical neurons assessed as increase in cell viability pretreated for 2 hrs followed by 30 uM glutamate addition measured after 24 hrs by MTT assay
Assay type: functional, cell-based
Quantity measured: EC50

| Molecule | Assay value |
| --- | --- |
| CCOC(=O)/C=C/c1cc(O)c(O)cc1-c1cc2cccc(O)c2o1 | > 50 µM |
| Oc1ccc(-c2cc3cc(Br)cc(O)c3o2)cc1O | > 50 µM |
| CCOC(=O)/C=C/c1ccc(/C=C/c2cc(O)c(O)c(O)c2)cc1 | > 50 µM |
| CCOC(=O)/C=C/c1cc(O)c(O)cc1-c1cc2ccccc2o1 | 46.1 µM |
| CCOC(=O)/C=C/c1ccc(OC)c(O)c1/C=C/c1ccc2c(c1)OCO2 | > 50 µM |
| COc1cc(Br)cc(/C=C/c2ccc3c(c2)OCO3)c1O | > 20 µM |
| CCOC(=O)/C=C/c1cccc(/C=C/c2cc(O)c(O)c(O)c2)c1 | > 50 µM |
| COc1ccc(/C=C/c2cc(C=O)cc(OC)c2O)cc1OC | > 50 µM |
| Oc1cc(-c2cc3ccccc3o2)c(Br)c(O)c1O | > 20 µM |
| CCOC(=O)/C=C/c1cc(O)c2oc(-c3cc(O)c(O)c(O)c3)cc2c1 | 33 µM |
| Oc1ccc(-c2cc3c(Br)ccc(O)c3o2)cc1O | > 0.5 µM |
| COC(=O)/C=C/c1ccc(O)c2c1C=Cc1cc(O)c(O)cc1O2 | > 50 µM |
